Quick reference for pIC50 among some molecules
Target: human TLR9 (Homo sapiens)
Construct: host or cells: HEK-Blue cells
Sequence (Q9NR96 26-1032): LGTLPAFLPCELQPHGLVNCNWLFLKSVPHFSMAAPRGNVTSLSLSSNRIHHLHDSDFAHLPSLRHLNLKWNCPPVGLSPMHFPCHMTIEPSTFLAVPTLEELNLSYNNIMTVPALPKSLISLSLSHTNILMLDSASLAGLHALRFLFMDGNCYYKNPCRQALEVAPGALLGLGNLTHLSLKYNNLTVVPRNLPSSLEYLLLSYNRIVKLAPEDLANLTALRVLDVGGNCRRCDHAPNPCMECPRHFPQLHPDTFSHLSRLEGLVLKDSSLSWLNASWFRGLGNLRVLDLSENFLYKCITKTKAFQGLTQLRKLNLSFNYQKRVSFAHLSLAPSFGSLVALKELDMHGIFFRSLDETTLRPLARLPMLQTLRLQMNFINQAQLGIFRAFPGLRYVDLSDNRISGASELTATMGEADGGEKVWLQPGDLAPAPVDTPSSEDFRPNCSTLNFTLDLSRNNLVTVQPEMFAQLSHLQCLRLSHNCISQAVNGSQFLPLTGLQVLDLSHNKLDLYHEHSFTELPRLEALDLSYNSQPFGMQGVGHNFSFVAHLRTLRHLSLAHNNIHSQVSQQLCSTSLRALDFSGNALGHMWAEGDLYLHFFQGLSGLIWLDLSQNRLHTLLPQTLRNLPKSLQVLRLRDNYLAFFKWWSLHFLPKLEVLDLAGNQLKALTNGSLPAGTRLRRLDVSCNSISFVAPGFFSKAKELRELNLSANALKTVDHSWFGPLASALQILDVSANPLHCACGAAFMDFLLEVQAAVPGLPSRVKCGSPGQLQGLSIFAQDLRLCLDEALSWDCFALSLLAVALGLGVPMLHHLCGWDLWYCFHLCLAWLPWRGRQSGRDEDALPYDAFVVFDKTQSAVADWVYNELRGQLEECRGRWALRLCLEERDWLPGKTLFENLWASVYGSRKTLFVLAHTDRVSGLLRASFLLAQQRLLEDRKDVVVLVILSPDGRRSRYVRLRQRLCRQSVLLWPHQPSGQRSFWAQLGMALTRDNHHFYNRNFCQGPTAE
Assay: TLR9 inhibition reporter assay (HEK-Blue SEAP)
Format: cell-based
Conditions: HEK-Blue cells overexpressing human TLR9, ODN2006 5 nM, 22 hour incubation
pIC50: −log10 of the molar value.

Cc1cc2c(cc1-c1cc(C)c3ncnn3c1)[nH]c(=O)n2[C@@H]1CCCN(Cc2ncn(C)n2)C1	< 4.30
Cc1cc2c(cc1-c1cc(C)c3ncnn3c1)[nH]c(=O)n2[C@H]1CCCN(C2COC2)C1	< 4.30

Now for a further molecule.
Look up pIC50 for this molecule: CCc1cc2c(cc1-c1cc(OC)c3ncnn3c1)[nH]c(=O)n2[C@@H]1CCCN(C2COC2)C1
< 4.30
